readoutLabel: logP
Form rule: numeric answer, no unit written next to it.

I am curious: what logP value has been reported for O=C(Nc1ccccc1)c1cc([N+](=O)[O-])ccc1O ? 3.66

Which logP value is on record for O=C(Nc1ccc(F)cc1)c1cc(Cl)cc(Cl)c1O ? 4.76

Which logP is reported for this molecule? O=C(Nc1ccc(F)cc1F)c1cc(Cl)cc(Cl)c1O 4.55

// query logP value for entry O=C(Nc1ccccc1Cl)c1ccccc1O 4.35

# input molecule: O=C(Nc1ccc(Cl)cc1Cl)c1ccccc1O ; wanted: its logP 5.49

Recorded logP for O=C(Nc1ccc(Cl)cc1[N+](=O)[O-])c1cc(Cl)cc(Cl)c1O , please? 5.08

Which value of logP has been reported for O=C(Nc1ccccc1)c1cc(Cl)cc(Cl)c1O in the records? 4.01

Record request: logP value, item Cc1cc(Cl)ccc1NC(=O)c1ccccc1O 5.18
